- details: Ebola virus entry assay, blue channel fluorescence
The source made the active and inactive calls. The rule behind the calls is not given here.
Please state which outcome applies, choosing from active, inactive

Examples with answers:
[
  {
    "molecule": "CCN(CC)C(=O)C1CN2CCc3cc(OC)c(OC)cc3C2CC1OC(C)=O (stereo not given)",
    "group": "inactive"
  },
  {
    "molecule": "C=C1c2cccc(O)c2C(O)=C2C(=O)[C@]3(O)C(O)=C(C(N)=O)C(=O)[C@@H](N(C)C)[C@@H]3[C@@H](O)[C@H]12",
    "group": "active"
  },
  {
    "molecule": "CN1CC(=O)N2[C@H](c3ccc4c(c3)OCO4)c3[nH]c4ccccc4c3C[C@@H]2C1=O",
    "group": "inactive"
  }
]

How was `O=C(N[C@H]1N=C(c2ccccc2F)c2cccc3c2N(CC3)C1=O)c1cc2ccccc2[nH]1` classified in this test?
active

How was `Cc1c(-c2ccccc2)oc2c(C(=O)OCCN3CCCCC3)cccc2c1=O` classified in this test?
inactive

* * *

- System: PC49
- experimentNotes: qHTS profiling for inhibitors of Plasmodium falciparum proliferation (AID 504749); note: nearly all actives have a fitted effect of over 60% in size
- details: P. falciparum in erythrocytes, SYBR Green DNA, 72 h; series mostly up to 28.7 µM
Inconclusive results are not listed. Calls of active or inactive are those of the source. Calls follow the shape of the dose curve; as a rule, active = well fitted inhibition curve with a large enough effect; inconclusive = small, poorly fitted or top-dose-only effect; inactive = flat fitted curve, though single readings scatter.
Please state which outcome applies, choosing from true (active), false (inactive)

[
  {
    "smi": "OC(O)C(Cl)(Cl)Cl",
    "group": "false"
  },
  {
    "smi": "O=C(CCCN1CCC(n2c(=O)[nH]c3ccccc32)CC1)c1ccc(F)cc1",
    "group": "true"
  },
  {
    "smi": "CN1C(=O)[C@@H](NC(=O)c2cc3ccccc3[nH]2)N=C(c2ccccc2)c2ccccc21",
    "group": "false"
  },
  {
    "smi": "C[C@H]1C(=O)O[C@@H]2CCN3CC=C(COC(=O)[C@](C)(O)[C@]1(C)O)[C@H]23",
    "group": "false"
  }
]

How was `Cc1ncc2n1-c1ccc(Cl)cc1C(c1ccccc1F)=NC2` classified in this test?
false

How was `CN1CCc2cc(Cl)c(O)cc2[C@H]2c3ccccc3CC[C@@H]21` classified in this test?
false

* * *

- System: ATS189
- experimentNotes: qHTS profiling for inhibitors of Plasmodium falciparum proliferation (AID 504749); note: nearly all actives have a fitted effect of over 60% in size; note: potency is the fitted concentration of half-maximal effect
- details: P. falciparum in erythrocytes, SYBR Green DNA, 72 h; series mostly up to 28.7 µM
Results filed as inconclusive are left out. Active and inactive are the calls of the source. Calls follow the shape of the dose curve; as a rule, active = well fitted inhibition curve with a large enough effect; inconclusive = small, poorly fitted or top-dose-only effect; inactive = flat fitted curve, though single readings scatter.
reportedProperty: Potency

[
  {
    "molecule": "COc1ccc(CN2CCNCC2)c(OC)c1OC",
    "Potency": "inactive"
  },
  {
    "molecule": "C[C@]12Cc3nonc3C[C@@H]1CC[C@@H]1[C@@H]2CC[C@@]2(C)[C@H]1CC[C@]2(C)O",
    "Potency": "inactive"
  },
  {
    "molecule": "Cc1ccc(N=CN(C)C=Nc2ccc(C)cc2C)c(C)c1",
    "Potency": "inactive"
  },
  {
    "molecule": "Clc1ccc(CO/N=C(\\Cn2ccnc2)c2ccc(Cl)cc2Cl)c(Cl)c1",
    "Potency": "3.98 µM (active)"
  },
  {
    "molecule": "CCN(Cc1ccc(Cl)nc1)/C(=C/[N+](=O)[O-])NC",
    "Potency": "inactive"
  }
]

The record that follows has no Potency shown yet.
Any idea what Potency came out for CNC(=O)NC(O)C(Cl)(Cl)Cl (centres undefined) on ATS189?
inactive

* * *

- details: Ebola virus entry assay, blue channel (ratio component)
Measured potencies and affinities stand elsewhere. The source made the active and inactive calls. No rule for the calls is given here.
reportedProperty: outcome

Answered examples (8):
[
  {
    "compound": "CCOC(=O)NC(C)(C)Cc1ccc(Cl)cc1",
    "outcome": "inactive"
  },
  {
    "compound": "CN1CC(=O)N2[C@H](c3ccc4c(c3)OCO4)c3[nH]c4ccccc4c3C[C@@H]2C1=O",
    "outcome": "inactive"
  },
  {
    "compound": "O=C(O)CCC(=O)Nc1ccc(S(=O)(=O)Nc2nccs2)cc1",
    "outcome": "inactive"
  },
  {
    "compound": "O=C1C(CCS(=O)c2ccccc2)C(=O)N(c2ccccc2)N1c1ccccc1 (stereo not given)",
    "outcome": "inactive"
  },
  {
    "compound": "N[C@@H](CSCCCO)C(=O)O",
    "outcome": "inactive"
  },
  {
    "compound": "N=C(N)c1ccc(OCCCOc2ccc(C(=N)N)cc2)cc1",
    "outcome": "inactive"
  },
  {
    "compound": "C[C@H]1COc2c(C3(N)CC3)c(F)cc3c(=O)c(C(=O)O)cn1c23",
    "outcome": "inactive"
  },
  {
    "compound": "C[C@]12CCC(=O)C=C1CC[C@@H]1[C@@H]2C(=O)C[C@@]2(C)[C@H]1CC[C@]2(O)C(=O)CO",
    "outcome": "inactive"
  }
]

I would be grateful if you could share the reported outcome for CC(NC(CCc1ccccc1)C(=O)O)C(=O)N1C(=O)N(C)CC1C(=O)O (stereo not given) .
inactive

I would be grateful if you could share the reported outcome for `O=C1Cc2cc(Cl)ccc2N1` .
inactive

I would be grateful if you could share the reported outcome for `CC(C)(C)c1ccc(C(=O)CCCCl)cc1` .
inactive

I would be grateful if you could share the reported outcome for `O=c1[nH]c(=O)c2ccccc2o1` .
inactive

I would be grateful if you could share the reported outcome for `Cc1cc(C)c(/C=C2\C(=O)Nc3ccccc32)[nH]1` .
inactive

I would be grateful if you could share the reported outcome for `CCCCC(=O)O[C@]1(C(=O)CO)[C@@H](C)C[C@H]2[C@@H]3CCC4=CC(=O)C=C[C@]4(C)[C@@]3(F)[C@@H](O)C[C@@]21C` .
inactive

I would be grateful if you could share the reported outcome for `CCC(CC)(CC(=O)Nc1cccc(/C=C/c2nc(C3CCC3)cs2)c1)C(=O)O` .
inactive

I would be grateful if you could share the reported outcome for `CC1(C)CCC(C)(C)c2cc(NC(=O)c3ccc(C(=O)O)cc3)ccc21` .
inactive

I would be grateful if you could share the reported outcome for `C[C@H]1C[C@H]2[C@@H]3CCC4=CC(=O)C=C[C@]4(C)[C@H]3C(=O)C[C@]2(C)[C@@]1(O)C(=O)CO` .
inactive

I would be grateful if you could share the reported outcome for `Nc1ccc(N)cc1` .
inactive

I would be grateful if you could share the reported outcome for `CNC(=O)Oc1ccc2c(c1)[C@]1(C)CCN(C)[C@@H]1N2C` .
inactive

I would be grateful if you could share the reported outcome for `CC(=O)Oc1ccc(C2(c3ccc(OC(C)=O)cc3)Oc3ccccc3NC2=O)cc1` .
inactive

I would be grateful if you could share the reported outcome for `CC(=O)[C@H]1CC[C@H]2[C@@H]3CC=C4C[C@@H](O)CC[C@]4(C)[C@H]3CC[C@]12C` .
inactive

I would be grateful if you could share the reported outcome for `O=C(NOCC1CC1)c1ccc(F)c(F)c1Nc1ccc(I)cc1Cl` .
inactive

I would be grateful if you could share the reported outcome for `Cc1ccc(/C=N/n2c(-c3ccccc3)csc2=S)cc1` .
inactive

I would be grateful if you could share the reported outcome for `CC(=C(CCOC(=O)C(C)C)SSC(CCOC(=O)C(C)C)=C(C)N(C=O)Cc1cnc(C)nc1N)N(C=O)Cc1cnc(C)nc1N` .
inactive

I would be grateful if you could share the reported outcome for CC(=O)Nc1ccn(C2COC(COC(=O)c3ccccc3)O2)c(=O)n1 (stereo not given) .
inactive

I would be grateful if you could share the reported outcome for Oc1ccc(C(O)CNCCCCCCNCC(O)c2ccc(O)c(O)c2)cc1O (stereo not given) .
inactive

I would be grateful if you could share the reported outcome for `OC(O)C(Cl)(Cl)Cl` .
inactive

I would be grateful if you could share the reported outcome for `COc1cc(CC#N)cc(OC)c1OC` .
inactive

I would be grateful if you could share the reported outcome for `CC(=O)OCC(=O)[C@@]1(O)CC[C@H]2[C@@H]3CCC4=CC(=O)C=C[C@]4(C)[C@H]3[C@@H](O)C[C@@]21C` .
inactive

I would be grateful if you could share the reported outcome for `C[C@H](O)C(=O)Nc1c(I)c(C(=O)NC(CO)CO)c(I)c(C(=O)NC(CO)CO)c1I` .
inactive

I would be grateful if you could share the reported outcome for `OCC(CO)N[C@H]1C[C@](O)(CO)[C@@H](O)[C@H](O)[C@H]1O` .
inactive

* * *

- experimentalTarget: Glucocorticoid receptor (Homo sapiens) (UniProt P04150)
- Sequence (P04150 whole entry, looked up): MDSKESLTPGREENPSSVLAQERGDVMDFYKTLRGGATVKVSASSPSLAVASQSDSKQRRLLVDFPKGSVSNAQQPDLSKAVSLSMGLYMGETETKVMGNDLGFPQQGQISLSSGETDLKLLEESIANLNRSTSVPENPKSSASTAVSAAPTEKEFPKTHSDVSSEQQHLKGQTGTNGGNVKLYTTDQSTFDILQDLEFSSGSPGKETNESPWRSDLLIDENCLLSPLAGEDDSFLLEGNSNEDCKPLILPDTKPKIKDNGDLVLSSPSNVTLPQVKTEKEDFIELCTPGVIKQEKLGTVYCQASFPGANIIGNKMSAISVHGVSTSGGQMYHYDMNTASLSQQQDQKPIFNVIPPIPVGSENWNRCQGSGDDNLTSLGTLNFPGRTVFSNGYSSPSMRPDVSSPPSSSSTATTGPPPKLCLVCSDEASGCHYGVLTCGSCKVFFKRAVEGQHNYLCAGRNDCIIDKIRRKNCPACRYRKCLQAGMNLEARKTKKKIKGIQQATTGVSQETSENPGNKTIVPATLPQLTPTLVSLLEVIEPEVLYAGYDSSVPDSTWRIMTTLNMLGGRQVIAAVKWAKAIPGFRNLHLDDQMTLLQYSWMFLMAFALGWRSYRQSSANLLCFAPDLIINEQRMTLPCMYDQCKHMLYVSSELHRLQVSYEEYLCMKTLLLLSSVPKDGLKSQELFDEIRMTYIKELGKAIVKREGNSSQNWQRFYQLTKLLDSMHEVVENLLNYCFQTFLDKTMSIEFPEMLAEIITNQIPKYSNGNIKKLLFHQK
- experimentNotes: qHTS assay for small molecule antagonists of glucocorticoid receptor signaling (AID 588533);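 note: cells stimulated with 2 nM dexamethasone as agonist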; note: potency is the fitted concentration of half-maximal effect
- details: HeLa MMTV-bla, GRE beta-lactamase ratio, antagonist mode, 18 h; series mostly up to 76.8 µM
Results filed as inconclusive are left out. Activity calls are given as the source filed them. Calls come from the whole dose curve; as a rule, active = well fitted inhibition curve with a large enough effect in the signal ratio, with a control signal flat (not every such curve was filed as active); inconclusive = small, poorly fitted or top-dose-only effect, or effect the other way, or a change in a side signal; inactive = flat fitted curve, though single readings scatter; the % refers to the signal ratio.
reportedProperty: Potency

Answered examples (6):
[
  {
    "smi": "O=C(CCl)c1ccc(Cl)cc1Cl",
    "reportedProperty": "Potency",
    "result": "14.1 µM (active)"
  },
  {
    "smi": "Cc1ccc(N=CN(C)C=Nc2ccc(C)cc2C)c(C)c1",
    "reportedProperty": "Potency",
    "result": "inactive"
  },
  {
    "smi": "COC(=O)C1=C(C)NC(C)=C(C(=O)OC)C1c1ccccc1[N+](=O)[O-]",
    "reportedProperty": "Potency",
    "result": "31.6 µM (active)"
  },
  {
    "smi": "CCC(=O)O[C@H]1CC[C@H]2[C@@H]3CCC4=CC(=O)CC[C@]4(C)[C@H]3CC[C@]12C",
    "reportedProperty": "Potency",
    "result": "31.6 µM (active)"
  },
  {
    "smi": "CCNc1nc(Cl)nc(NCC)n1",
    "reportedProperty": "Potency",
    "result": "inactive"
  },
  {
    "smi": "C[C@H]1C(=O)O[C@@H]2CCN3CC=C(COC(=O)[C@](C)(O)[C@]1(C)O)[C@H]23",
    "reportedProperty": "Potency",
    "result": "inactive"
  }
]

The record that follows has no Potency shown yet.
I would be grateful if you could share the reported Potency for `CCOP(=S)(OCC)O/N=C(\C#N)c1ccccc1` .
inactive
